Quick list: kcat/KM Cat V per entry.
molecular target: human recombinant cathepsin V (Homo sapiens); construct: with a 100 nM final concentration of each active cathepsin for 30 min; made in house; test: Substrate hydrolysis kinetics (kcat, KM, kcat/KM) of ACC-labeled substrates; type: biochemical; conditions: cathepsin V 200 nM; pH 5.5, 37 °C; Michaelis–Menten; average of at least triplicate, S.D. below 15%
Sequence (O60911 114-334): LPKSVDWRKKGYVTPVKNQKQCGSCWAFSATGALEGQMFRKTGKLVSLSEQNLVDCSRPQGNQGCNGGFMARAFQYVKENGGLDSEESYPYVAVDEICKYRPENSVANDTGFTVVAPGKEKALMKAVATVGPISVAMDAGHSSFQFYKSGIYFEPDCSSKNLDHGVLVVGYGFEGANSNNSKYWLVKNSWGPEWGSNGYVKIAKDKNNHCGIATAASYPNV
Square brackets hold non-standard residues; d marks the D form. * marks the point of attachment. ACC = NC(=O)Cc1cc(=O)oc2cc(N*)ccc12; hPhe = N[C@@H](CCc1ccccc1)C(=O)O; Cha = N[C@@H](CC1CCCCC1)C(=O)O; OBn = c1ccc(CO*)cc1
Report as a plain number; the unit M⁻¹ s⁻¹ is understood.

{"columns": ["SUBSTANCE", "UNIT_ABBREVIATION", "DATA_VALUE"],
 "data": [
  ["Ac-[hPhe]LE(OBn)R-{ACC} (SMILES CC(=O)N[C@@H](CCc1ccccc1)C(=O)N[C@@H](CC(C)C)C(=O)N[C@@H](CCC(=O)OCc1ccccc1)C(=O)N[C@@H](CCCNC(=N)N)C(=O)Nc1ccc2c(CC(N)=O)cc(=O)oc2c1) [ACC-labeled tetrapeptide substrate]", "M⁻¹ s⁻¹", 829]
]}

-- ask Param request: kcat/KM Cat V | system human recombinant cathepsin V (Homo sapiens) | item Ac-[Cha]LE(OBn)R-{ACC} (SMILES CC(=O)N[C@@H](CC1CCCCC1)C(=O)N[C@@H](CC(C)C)C(=O)N[C@@H](CCC(=O)OCc1ccccc1)C(=O)N[C@@H](CCCNC(=N)N)C(=O)Nc1ccc2c(CC(N)=O)cc(=O)oc2c1)
-- reply 949

Ref: paper PMC6839509
